Molecular target: Serine/threonine-protein kinase B-raf (Homo sapiens, UniProt P15056, V600E)
Sequence (P15056 2-766 V600E limits assumed): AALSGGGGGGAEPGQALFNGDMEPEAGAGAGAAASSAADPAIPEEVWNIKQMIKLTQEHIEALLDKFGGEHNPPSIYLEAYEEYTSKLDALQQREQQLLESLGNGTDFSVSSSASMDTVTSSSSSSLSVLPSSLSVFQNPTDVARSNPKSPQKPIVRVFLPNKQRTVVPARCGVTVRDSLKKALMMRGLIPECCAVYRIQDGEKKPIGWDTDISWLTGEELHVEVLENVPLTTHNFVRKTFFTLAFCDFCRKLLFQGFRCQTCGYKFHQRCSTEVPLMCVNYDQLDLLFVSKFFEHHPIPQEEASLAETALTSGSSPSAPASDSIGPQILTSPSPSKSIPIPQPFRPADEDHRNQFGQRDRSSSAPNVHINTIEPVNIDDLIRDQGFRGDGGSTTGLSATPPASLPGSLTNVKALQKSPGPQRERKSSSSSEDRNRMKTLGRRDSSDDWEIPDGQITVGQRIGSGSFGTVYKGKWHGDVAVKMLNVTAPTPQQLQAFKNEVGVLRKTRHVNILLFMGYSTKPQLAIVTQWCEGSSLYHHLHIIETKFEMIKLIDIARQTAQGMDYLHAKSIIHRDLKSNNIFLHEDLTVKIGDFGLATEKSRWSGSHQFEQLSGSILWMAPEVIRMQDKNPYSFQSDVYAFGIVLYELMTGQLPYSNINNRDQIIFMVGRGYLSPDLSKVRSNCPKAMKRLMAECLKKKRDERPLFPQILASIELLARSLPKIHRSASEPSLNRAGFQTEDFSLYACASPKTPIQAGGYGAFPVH
Assay: Inhibition of BRAF V600E mutant-mediated ERK phosphorylation in human WM266.4 cells
Format: cell-based
pIC50: −log10 of the molar value.
MEASUREMENT_LABEL: pIC50

Observe how each entry below is paired with its result.
CPD_SMILES: O=C(Nc1cccc(Oc2ccnc3[nH]c(=O)[nH]c23)c1)c1ccc(F)c(OC(F)(F)F)c1
pIC50: 4.56
--
CPD_SMILES: COc1cc(NC(=O)c2cccc(OC(F)(F)F)c2)cc(Oc2ccnc3[nH]c(=O)[nH]c23)c1
pIC50: 4.78

(1) Cc1ccc(-n2nc(C(F)(F)F)cc2NC(=O)Nc2cccc(Oc3ccnc4[nH]c(=O)[nH]c34)c2)cc1
(2) Cc1ccc(-n2nc(C(C)(C)C)cc2NC(=O)c2cccc(Oc3ccnc4[nH]c(=O)[nH]c34)c2)cc1
Asked: # query: argmin of pIC50 over 1 and 2 Bench note: the answer is the label of the chosen record.
Given back: 1
